Ref: ChEMBL document CHEMBL4513216

Give measured cytotoxicity at 10 µM for each item. Keep answers brief.
- Experimental Protocol: Toxicity liver stage against HepG2, at 10uM
- Type: cell-based
- Design: test concentration 10 uM, cell line HepG2-A16-CD81EGFP
- Run Conditions: human, HepG2-A16-CD81EGFP cells; read-out: INHIBITION
Give me the value, and tack the unit on after it.

Recorded cytotoxicity at 10 µM, per entry:
Molecule | cytotoxicity at 10 µM
CCN(C)c1ncnc2c1CCN(C(=O)NCc1cccnc1)CC2 | -126%
CC(=O)c1cccc(S(=O)(=O)N2CCC(c3n[nH]c(C)n3)CC2)c1 | -5.83%
CC(=O)N(Cc1ncc(C(C)C)o1)C1CCN(CCC#N)C1 (configuration not stated) | -6.39%
Cc1ccc(C2CSCCN2C(=O)c2ccsc2)o1 (configuration not stated) | 1.68%
CN1CCC(C)(CNC(=O)c2ccc(SCc3cccnc3)cc2)CC1 | 12.4%
O=C(CCC1CCCC1)N1CCC(O)(C(F)(F)F)C1 (configuration not stated) | -0.0394%

Please give cytotoxicity at 10 µM, item by item, for the list that follows.
1. CCCNC(=O)CSc1nnc2[nH]c(=O)c3c(n12)CCCC3
2. Cc1ccc(CC(=O)N2CCN(CC(O)c3ccccc3)CC2)cn1 (configuration not stated)
3. CC(C)n1nc(Cn2cccn2)c2c1CN(CC1CCOC1)C2 (configuration not stated)
4. COCCN1CCCC12CCN(c1ncccn1)CC2
5. Cc1cncc(C(=O)N2CCc3ncc(Cn4cccn4)n3CC2)c1
6. Cc1cc(-c2cnc(N3CCC(C(N)=O)CC3)nc2C(C)C)on1

1: -83.3%; 2: -10.9%; 3: 7.13%; 4: 11.4%; 5: 14.3%; 6: 72.2%

* * *

Consider the following compounds; for each one, report its cytotoxicity at 10 µM.
- Experimental Protocol: Toxicity liver stage against HepG2, at 10uM
- Format: cell-based
- Parameters: test concentration 10 uM, cell line HepG2-A16-CD81EGFP
- Run Conditions: human, HepG2-A16-CD81EGFP cells; read-out: INHIBITION
Give bare numbers, in %.

Guide cases for cytotoxicity at 10 µM, answers given:
Compound | cytotoxicity at 10 µM (%)
Cc1nc(C)n(CC2CCCN2CCc2cccs2)n1 (configuration not stated) | -3.51
O=C(CC1CCC2(CC1)CCN(Cc1nccs1)CC2)N1CC=CC1 | -4.35
CC(C)Sc1ncccc1C(=O)NCc1cccc(N(C)C)c1 | -3.42

Each compound below has a reported value. Please supply its cytotoxicity at 10 µM.
1. CCN(Cc1noc(C2CCC2)n1)C(=O)CCc1cc2n(n1)CCNC2
2. O=C(CO)N1CCCC(N2CCN(c3ccccc3F)CC2)C1 (configuration not stated)
3. CC(=O)N1CCOC(c2ccnc(N(C)C)n2)C1 (configuration not stated)

1: 10.5; 2: -49.1; 3: 1.62

Count: 2. Required value per item: cytotoxicity at 10 µM.
1. Cc1nc(C)n(CC2CN(Cc3nccs3)Cc3nccn3C2)n1 (configuration not stated)
2. Cc1ccc(CC(=O)NCC(O)c2ccc(Cl)cc2Cl)cn1 (configuration not stated)

-140
-10.1

Would you mind listing cytotoxicity at 10 µM for each of the following compounds?
1. COC(=O)CNC(=O)CCc1cc(Br)cs1
2. CSC(C)C(=O)N1CCCN(c2ncccc2C#N)CC1 (configuration not stated)
3. CCC[C@@H]1CN(C(=O)c2cc(-c3cccs3)n(C)n2)C[C@H]1N(C)C
4. COc1ccc2cc(C3CN(C(=O)C4CCOCC4)CCO3)ccc2c1 (configuration not stated)

1: 0.624; 2: -1.2; 3: -1.84; 4: -8.68

* * *

- Experimental Protocol: Toxicity liver stage against HepG2, at 10uM
- Type: cell-based
- Design: test concentration 10 uM, cell line HepG2-A16-CD81EGFP
- Run Conditions: human, HepG2-A16-CD81EGFP cells; read-out: INHIBITION
Hi there, I'd appreciate the recorded cytotoxicity at 10 µM for every entry that follows.
Numbers only, in %.

Provide cytotoxicity at 10 µM values for the following items, in order.
1. Cn1ccnc1CN1CCC2(CC1)CC(N1CCCC1)c1ccccc12 (stereo unspecified)
2. O=C(O)c1c(NC2CCC2)ncc2c1CCN(C1CCOC1)C2 (stereo unspecified)
3. c1ccc2oc(CCCN3CCCC3c3noc(C4CC4)n3)nc2c1 (stereo unspecified)
4. COCC1CN(C(=O)Cc2ccccn2)Cc2ncnn2C1 (stereo unspecified)
5. CCn1c(CN2CCCC2)nnc1C1CCN(Cc2cc(C)no2)CC1
6. CN(C(=O)C1(C#N)CCCCC1)c1nccs1
7. CSc1ccc(CN(CCO)C(=O)CCc2ccc(O)cc2)cc1

7.24
11.4
-13.5
-2.47
3.6
0.658
-0.711

# return cytotoxicity at 10 µM for each item in the list
1. CC(C)n1ccc(-c2cc(C(=O)N3CCN(C)CC3)c3ccccn23)n1
2. CNC(=O)[C@H]1C[C@@H]2CN(C(=O)c3occc3C)C[C@@H]2N1S(C)(=O)=O

[9.49, -2.95]

List the reported cytotoxicity at 10 µM of each molecule below.
1. CN(Cc1n[nH]c2c1CCCCC2)C(=O)c1cc(-c2cccn2C)n[nH]1
2. O=C(CCn1ccnn1)N1CCCC(n2cncn2)C1 (stereo unspecified)

[3.02, -1.26]

* * *

- Experimental Protocol: Toxicity liver stage against HepG2, at 10uM
- Format: cell-based
- Design: test concentration 10 uM, cell line HepG2-A16-CD81EGFP
- Run Conditions: human, HepG2-A16-CD81EGFP cells; read-out: INHIBITION
Property Measured: cytotoxicity at 10 µM (%)
Numbers only, in %.

Here is how some compounds turned out for cytotoxicity at 10 µM.
Compound | Unit Label | cytotoxicity at 10 µM
CCN1Cc2ccccc2CC2(CCN(CC3CCC3)CC2)C1=O | % | 4.15
O=C(c1cccc2c1OCO2)N1CCCC(n2cccn2)C1 (stereo unspecified) | % | -8.72
CNC(=O)c1cnc(/C=C/c2cc(OC)cc(OC)c2)s1 | % | -19.6
CS(=O)(=O)N1CCO[C@@H]2CN(Cc3ccc(F)cc3)CC[C@@H]2C1 | % | 6.86
Cc1cc(CN(C)C(=O)NCc2cccc(N3CCCC3=O)c2)no1 | % | -12.4

Continue with the next compound.
Can you look up the measured cytotoxicity at 10 µM of O=S(=O)(CCNCc1cccc2c1OCCO2)N1CCOCC1 for me? -10.9

* * *

Field: cytotoxicity at 10 µM. Provide a value for each of the compounds that follow.
- Experimental Protocol: Toxicity liver stage against HepG2, at 10uM
- Assay type: cell-based
- Set-up: test concentration 10 uM, cell line HepG2-A16-CD81EGFP
- Run Conditions: human, HepG2-A16-CD81EGFP cells; read-out: INHIBITION
One number for each entry, in %.

Take a look at these entries with their results.
Compound | Unit Label | cytotoxicity at 10 µM
CC(C)CCNC(=O)C1CCN(c2ccc3nnc(C(C)C)n3n2)CC1 | % | 1.68
Cc1cncc(C(=O)N2CCN(c3cnn(C)c(=O)c3)CC2)c1 | % | -20.4

Parameter requested: cytotoxicity at 10 µM. Apply to each item below.
1. CC(C)Oc1cc(N2C[C@@H](C)O[C@@H](C)C2)nc(N)n1
2. c1cncc(COCC2CN(Cc3ccncc3)Cc3ccnn3C2)c1 (stereo unspecified)

-9.15
-135

Batch of 2 compounds: report cytotoxicity at 10 µM for each.
1. Cc1ccc(C(=O)N(C)CCCc2cnn(C)c2)cc1N1CCNC1=O
2. CC(C)OC(=O)N1CCCC2(CCC(=O)N(CCc3c[nH]cn3)C2)C1 (stereo unspecified)

1: -4.39; 2: -3.73

* * *

Assignment: determine reported cytotoxicity at 10 µM for the given molecules.
- Experimental Protocol: Toxicity liver stage against HepG2, at 10uM
- Format: cell-based
- Parameters: test concentration 10 uM, cell line HepG2-A16-CD81EGFP
- Run Conditions: human, HepG2-A16-CD81EGFP cells; read-out: INHIBITION
Give bare numbers, in %.

Guide cases for cytotoxicity at 10 µM, answers given:
Molecule | Numeric Readout
CN1CC[C@]2(CN(Cc3nccs3)C[C@H]2c2ccccc2)C1=O | 10.8
CC(C)N(C)C(=O)C1CCN(Cc2cc3c(cc2O)CCC3)CC1 | 6.15
CCOc1ccc(S(=O)(=O)NCCc2ccc(N(C)C)cc2)cc1C | -6.48
COc1ccc2[nH]cc(-c3ccnc(N4CCC(C)CC4)n3)c2c1 | -7.3
Cc1cnc(C(=O)N2CCCC(c3c(C)c(=O)nc4n3CCC4)C2)cn1 (stereo unspecified) | -26.5

Give cytotoxicity at 10 µM for each of the items listed below.
1. CC(C)(C)c1nc(CN2CCCC(Cn3cncn3)C2)no1 (stereo unspecified)
2. CCn1c(C(=O)N2CCN(C(=O)NC(C)C)CC2)cc2ccccc21
3. CCCS(=O)(=O)CCN1CCN(C(C#N)c2ccccc2)CC1 (stereo unspecified)
4. CCn1ccnc1CN1CCCN(C(=O)c2scnc2C)CC1
5. CN(C)c1cc2c(nn1)CCN(C(=O)Cc1ccc3c(c1)CCC3)C2
6. CC(C)(C)OC(=O)NC(C)(C(N)=O)c1cccc(Cl)c1 (stereo unspecified)

1: -0.0792; 2: -1.94; 3: -5.02; 4: -7.77; 5: -5.98; 6: 18.3
